# measurement.description: chemical genetic growth profiling, strain panel (AID 1159580);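 note: tested at 20 µM; growth read once vehicle control cultures reached saturation at 30 °C; 1 = growth at the plate median or of vehicle wells; lower values mean less growth of the strain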
# condition.description: S. cerevisiae deletion strains, growth OD, locus YHR200W, strain rpn10, hits give low values
Among all 5,500 compounds or so, about 2,000 (36%) were called active. About 18% were inconclusive and are not listed. The list shows a part of the results.
quantity: normalized growth
The answer should be written as a number, with no unit following it.

Answered examples (3):
compound	quantity	measured.result
C=C1CCC(=O)C(C)CCC2C1CC2(C)C (configuration not stated)	normalized growth	0.995
CC(=O)N[C@@H](CS)C(=O)O	normalized growth	1.02
C=C1CCC2C(CC2(C)C)C(=C)CC/C1=N\O (configuration not stated)	normalized growth	0.971

In: Fill in: normalized growth of COc1cc(-c2coc3cc(OC)c(OC)c(OC)c3c2=O)cc(OC)c1OC is ___
Out: 1.01

In: Which value of normalized growth has been reported for NC(N)=NS(=O)(=O)c1ccc(N)cc1 in the records?
Out: 0.985
